System: 994946-033-R-J1-PDC complex spheroid viability;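 note: spheroids exposed to drugs for 7 days; 100% = DMSO vehicle treated spheroids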
Assay: Anticancer human tumor 994946-033-R-J1-PDC patient-derived melanoma cell line growth inhibition [POLQ]
Conditions: second compound 1 µM; first compound 0.0316 µM; hits give low values
Exercise: state measured viability, T/C for each of the molecules provided.
Could you give me the number in %? Just the number is fine.

q: # input molecule: Nc1ccn(C2OC(CO)C(O)C2(F)F)c(=O)n1 (stereo unspecified) + Cc1cccc(N(C)C(=O)C2C(O)CCN2c2nc(C)cc(C(F)(F)F)c2C#N)c1 ; wanted: its viability, T/C
a: 23.1

q: Now consider CCc1cc2c(N3CCc4c(cc(Cn5ccnc5)cc4-c4cn(C)nc4C(F)(F)F)C3=O)cc(C)nc2c(OC)n1 + Cc1cccc(N(C)C(=O)C2C(O)CCN2c2nc(C)cc(C(F)(F)F)c2C#N)c1 and answer again.
a: 106

q: Now the molecule CNCc1ccc(-c2[nH]c3cc(F)cc4c3c2CCNC4=O)cc1 + Cc1cccc(N(C)C(=O)C2C(O)CCN2c2nc(C)cc(C(F)(F)F)c2C#N)c1
a: 105

q: Also check COc1cc2cc(C(=O)CCC(=O)O)sc2cc1OC + Nc1ccc(C#CCN(C(=O)Cc2ncc(C(F)(F)F)cc2C(F)(F)F)c2ccc(F)cc2)nn1
a: 93.5

q: CC[C@@]1(O)C(=O)OCc2c1cc1n(c2=O)Cc2cc3c(CN(C)C)c(O)ccc3nc2-1 + COC1C(OC(N)=O)C(O)C(Oc2ccc3c(O)c(NC(=O)c4ccc(O)c(CC=C(C)C)c4)c(=O)oc3c2C)OC1(C)C ?
a: 30.4

q: Follow-up item: O=C(Nc1ccc(O)c(NS(=O)(=O)c2ccc(F)cc2)c1)c1ccc(-c2ccccc2)cc1 + Nc1ccc(C#CCN(C(=O)Cc2ncc(C(F)(F)F)cc2C(F)(F)F)c2ccc(F)cc2)nn1
a: 98.1

q: Param item: CCCS(=O)(=O)Nc1ccc(F)c(C(=O)c2c[nH]c3ncc(-c4ccc(Cl)cc4)cc23)c1F + COC1C(OC(N)=O)C(O)C(Oc2ccc3c(O)c(NC(=O)c4ccc(O)c(CC=C(C)C)c4)c(=O)oc3c2C)OC1(C)C
a: 90.5

q: Same question, CCCS(=O)(=O)Nc1ccc(F)c(C(=O)c2c[nH]c3ncc(-c4ccc(Cl)cc4)cc23)c1F + Cc1cccc(N(C)C(=O)C2C(O)CCN2c2nc(C)cc(C(F)(F)F)c2C#N)c1 this time
a: 64.8

q: Also, CC1COCCN1c1cc(C2(S(C)(=N)=O)CC2)nc(-c2ccnc3[nH]ccc23)n1 (stereo unspecified) + Nc1ccc(C#CCN(C(=O)Cc2ncc(C(F)(F)F)cc2C(F)(F)F)c2ccc(F)cc2)nn1 please.
a: 124

q: Item: Cn1ncnc1[C@H]1c2n[nH]c(=O)c3cc(F)cc(c23)N[C@@H]1c1ccc(F)cc1 + COC1C(OC(N)=O)C(O)C(Oc2ccc3c(O)c(NC(=O)c4ccc(O)c(CC=C(C)C)c4)c(=O)oc3c2C)OC1(C)C
a: 59.9

q: Next: CCc1cc2c(N3CCc4c(cc(Cn5ccnc5)cc4-c4cn(C)nc4C(F)(F)F)C3=O)ccnc2c(OC)n1 + Cc1cccc(N(C)C(=O)C2C(O)CCN2c2nc(C)cc(C(F)(F)F)c2C#N)c1
a: 77.7
